Target: A disintegrin and metalloproteinase with thrombospondin motifs 6 (Human)
Sequence (Q9UKP5 whole entry): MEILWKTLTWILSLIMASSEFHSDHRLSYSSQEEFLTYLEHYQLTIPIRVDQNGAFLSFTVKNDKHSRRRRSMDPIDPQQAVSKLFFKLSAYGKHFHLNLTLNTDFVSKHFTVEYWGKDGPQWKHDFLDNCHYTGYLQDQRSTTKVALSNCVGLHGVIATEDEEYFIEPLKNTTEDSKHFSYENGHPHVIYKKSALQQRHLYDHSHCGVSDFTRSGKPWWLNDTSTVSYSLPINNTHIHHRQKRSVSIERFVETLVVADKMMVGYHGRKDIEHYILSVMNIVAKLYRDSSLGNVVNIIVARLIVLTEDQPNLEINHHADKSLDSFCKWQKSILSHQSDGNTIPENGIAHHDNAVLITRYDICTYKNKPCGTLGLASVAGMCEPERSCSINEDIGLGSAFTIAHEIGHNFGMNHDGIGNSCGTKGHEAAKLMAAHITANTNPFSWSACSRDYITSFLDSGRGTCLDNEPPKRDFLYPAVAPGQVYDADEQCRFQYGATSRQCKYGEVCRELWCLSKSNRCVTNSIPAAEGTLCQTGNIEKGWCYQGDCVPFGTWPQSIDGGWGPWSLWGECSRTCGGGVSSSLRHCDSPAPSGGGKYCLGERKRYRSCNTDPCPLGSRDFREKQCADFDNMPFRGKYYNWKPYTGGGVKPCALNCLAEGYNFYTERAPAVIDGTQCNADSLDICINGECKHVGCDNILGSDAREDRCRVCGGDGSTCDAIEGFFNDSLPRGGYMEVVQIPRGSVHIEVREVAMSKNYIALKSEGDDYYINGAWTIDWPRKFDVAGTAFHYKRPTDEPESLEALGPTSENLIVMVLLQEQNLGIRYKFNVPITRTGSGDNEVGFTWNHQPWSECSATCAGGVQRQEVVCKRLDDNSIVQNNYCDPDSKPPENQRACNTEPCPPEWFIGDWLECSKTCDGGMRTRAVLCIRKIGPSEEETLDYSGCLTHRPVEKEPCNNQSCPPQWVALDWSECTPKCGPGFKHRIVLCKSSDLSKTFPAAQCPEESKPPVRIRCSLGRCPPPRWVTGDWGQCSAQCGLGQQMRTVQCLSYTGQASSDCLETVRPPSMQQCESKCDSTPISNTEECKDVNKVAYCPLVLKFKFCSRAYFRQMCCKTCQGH
endpoint_label: IC50

[in] Find IC50 (A disintegrin and metalloproteinase with thrombospondin motifs 6 (Human)) for the entry COc1c(Cl)cc(Cl)cc1C1CCN(C(=O)CC[C@H]2NC(=O)NC2=O)CC1
[out] > 100 nM
